- Protocol Description: Viability of human keratinocytes in culture (MTT test)
- Assay type: cell-based
- Condition Label: human, primary human keratinocytes in monolayer culture, 5.10^−6 M; 24 hours; control 100
Readout Label: viability at 24 h (%)
Give the quantity in %, number only.

Asked: Look at this molecule and give its reported viability at 24 h. C[C@]12CC[C@H](O)CC1=C[C@@H](O)[C@@H]1[C@@H]2CC[C@]2(C)C(=O)CC[C@@H]12 [7α-hydroxy-DHEA, 3β,7α-dihydroxy-5-androsten-17-one]
Given back: 147

###

- Protocol Description: Viability of human keratinocytes in culture (MTT test)
- Assay type: cell-based
- Condition Label: human, primary human keratinocytes in monolayer culture, 10^−7 M; 24 hours; control 100
Readout Label: viability at 24 h (%)
Give the quantity in %, number only.

Asked: Look at this compound and give its reported viability at 24 h. C[C@]12CC[C@H](O)CC1=C[C@@H](O)[C@@H]1[C@@H]2CC[C@]2(C)C(=O)CC[C@@H]12 [7α-hydroxy-DHEA, 3β,7α-dihydroxy-5-androsten-17-one]
Given back: 147

###

- Protocol Description: Viability of human keratinocytes in culture (MTT test)
- Format: cell-based
- Condition Label: human, primary human keratinocytes in monolayer culture, 10^−6 M; 24 hours; control 100
Readout Label: viability at 24 h (%)
Give the quantity in %, number only.

Asked: Look at this molecule and give its reported viability at 24 h. C[C@]12CC[C@H](O)CC1=C[C@@H](O)[C@@H]1[C@@H]2CC[C@]2(C)C(=O)CC[C@@H]12 [7α-hydroxy-DHEA, 3β,7α-dihydroxy-5-androsten-17-one]
Given back: 154

###

- Protocol Description: Viability of human keratinocytes in culture (MTT test)
- Format: cell-based
- Condition Label: human, primary human keratinocytes in monolayer culture, other comparative tests; concentration not given
Readout Label: viability at 24 h (%)
Give the quantity in %, number only.

Asked: Look at this compound and give its reported viability at 24 h. C[C@]12CC[C@H](O)CC1=CC[C@@H]1[C@@H]2CC[C@]2(C)C(=O)CC[C@@H]12 [DHEA, 3β-hydroxy-5-androstene-17-one, reference compound]
Given back: 100

###

- Protocol Description: Viability of human keratinocytes in culture (MTT test)
- Format: cell-based
- Condition Label: human, primary human keratinocytes in monolayer culture, 5.10^−5 M; 24 hours; control 100
Readout Label: viability at 24 h (%)
Give the quantity in %, number only.

Asked: Look at this molecule and give its reported viability at 24 h. C[C@]12CC[C@H](O)CC1=C[C@@H](O)[C@@H]1[C@@H]2CC[C@]2(C)C(=O)CC[C@@H]12 [7α-hydroxy-DHEA, 3β,7α-dihydroxy-5-androsten-17-one]
Given back: 111

###

- Protocol Description: Viability of human keratinocytes in culture (MTT test)
- Assay type: cell-based
- Condition Label: human, primary human keratinocytes in monolayer culture, 10^−8 M; 24 hours; control 100
Readout Label: viability at 24 h (%)
Give the quantity in %, number only.

Asked: Look at this molecule and give its reported viability at 24 h. C[C@]12CC[C@H](O)CC1=C[C@@H](O)[C@@H]1[C@@H]2CC[C@]2(C)C(=O)CC[C@@H]12 [7α-hydroxy-DHEA, 3β,7α-dihydroxy-5-androsten-17-one]
Given back: 127

###

- Protocol Description: Viability of human keratinocytes in culture (MTT test)
- Assay type: cell-based
- Condition Label: human, primary human keratinocytes in monolayer culture, 10^−4 M; 24 hours; control 100
Readout Label: viability at 24 h (%)
Give the quantity in %, number only.

Asked: Look at this compound and give its reported viability at 24 h. C[C@]12CC[C@H](O)CC1=C[C@@H](O)[C@@H]1[C@@H]2CC[C@]2(C)C(=O)CC[C@@H]12 [7α-hydroxy-DHEA, 3β,7α-dihydroxy-5-androsten-17-one]
Given back: 124
